assay: Toxicokinetics of S9229 in the 28-day rat study; format: in vivo, Sprague-Dawley rats; settings: male, Sprague-Dawley (Crl:CD(SD)), rat, plasma, po, 30 mg/kg, AUC0-24hr, Day 1, 30 mg/kg bw, M
QUANTITY NAME: AUC(0-t) (ng·h/mL)
Numbers only, in ng·h/mL.

Recorded AUC(0-t) (molecule COC[C@@H](CC(C)C)NC(=O)c1ccc(C)c(C)c1 [S9229] ): 25.8

====

assay: Toxicokinetics of S9229 in the 28-day rat study; assay type: in vivo, Sprague-Dawley rats; details: male, Sprague-Dawley (Crl:CD(SD)), rat, plasma, po, 30 mg/kg, Cmax, Day 1, 30 mg/kg bw, M
QUANTITY NAME: Cmax (ng/mL)
Give bare numbers, in ng/mL.

Recorded Cmax (compound COC[C@@H](CC(C)C)NC(=O)c1ccc(C)c(C)c1 ): 22.6
